# System Under Test: Sodium channel protein type 8 subunit alpha (Homo sapiens, UniProt Q9UQD0)
# Measurement Protocol: Antagonist activity at recombinant human Nav1.6 assessed as reduction in channel current by barracuda automated electrophysiology method
Readout: pIC50
// scale note: pIC50 = -log10(conc_M); give the bare number

// pIC50 lookup, compound = "CC1(C)CN[C@H](c2cc(Cl)cc(Cl)c2)[C@@H](Oc2cc(F)c(S(=O)(=O)Nc3ncns3)cc2F)O1" , result: 5.80

###

# System Under Test: Sodium channel protein type 9 subunit alpha (Homo sapiens)
# Sequence (Q15858 whole entry): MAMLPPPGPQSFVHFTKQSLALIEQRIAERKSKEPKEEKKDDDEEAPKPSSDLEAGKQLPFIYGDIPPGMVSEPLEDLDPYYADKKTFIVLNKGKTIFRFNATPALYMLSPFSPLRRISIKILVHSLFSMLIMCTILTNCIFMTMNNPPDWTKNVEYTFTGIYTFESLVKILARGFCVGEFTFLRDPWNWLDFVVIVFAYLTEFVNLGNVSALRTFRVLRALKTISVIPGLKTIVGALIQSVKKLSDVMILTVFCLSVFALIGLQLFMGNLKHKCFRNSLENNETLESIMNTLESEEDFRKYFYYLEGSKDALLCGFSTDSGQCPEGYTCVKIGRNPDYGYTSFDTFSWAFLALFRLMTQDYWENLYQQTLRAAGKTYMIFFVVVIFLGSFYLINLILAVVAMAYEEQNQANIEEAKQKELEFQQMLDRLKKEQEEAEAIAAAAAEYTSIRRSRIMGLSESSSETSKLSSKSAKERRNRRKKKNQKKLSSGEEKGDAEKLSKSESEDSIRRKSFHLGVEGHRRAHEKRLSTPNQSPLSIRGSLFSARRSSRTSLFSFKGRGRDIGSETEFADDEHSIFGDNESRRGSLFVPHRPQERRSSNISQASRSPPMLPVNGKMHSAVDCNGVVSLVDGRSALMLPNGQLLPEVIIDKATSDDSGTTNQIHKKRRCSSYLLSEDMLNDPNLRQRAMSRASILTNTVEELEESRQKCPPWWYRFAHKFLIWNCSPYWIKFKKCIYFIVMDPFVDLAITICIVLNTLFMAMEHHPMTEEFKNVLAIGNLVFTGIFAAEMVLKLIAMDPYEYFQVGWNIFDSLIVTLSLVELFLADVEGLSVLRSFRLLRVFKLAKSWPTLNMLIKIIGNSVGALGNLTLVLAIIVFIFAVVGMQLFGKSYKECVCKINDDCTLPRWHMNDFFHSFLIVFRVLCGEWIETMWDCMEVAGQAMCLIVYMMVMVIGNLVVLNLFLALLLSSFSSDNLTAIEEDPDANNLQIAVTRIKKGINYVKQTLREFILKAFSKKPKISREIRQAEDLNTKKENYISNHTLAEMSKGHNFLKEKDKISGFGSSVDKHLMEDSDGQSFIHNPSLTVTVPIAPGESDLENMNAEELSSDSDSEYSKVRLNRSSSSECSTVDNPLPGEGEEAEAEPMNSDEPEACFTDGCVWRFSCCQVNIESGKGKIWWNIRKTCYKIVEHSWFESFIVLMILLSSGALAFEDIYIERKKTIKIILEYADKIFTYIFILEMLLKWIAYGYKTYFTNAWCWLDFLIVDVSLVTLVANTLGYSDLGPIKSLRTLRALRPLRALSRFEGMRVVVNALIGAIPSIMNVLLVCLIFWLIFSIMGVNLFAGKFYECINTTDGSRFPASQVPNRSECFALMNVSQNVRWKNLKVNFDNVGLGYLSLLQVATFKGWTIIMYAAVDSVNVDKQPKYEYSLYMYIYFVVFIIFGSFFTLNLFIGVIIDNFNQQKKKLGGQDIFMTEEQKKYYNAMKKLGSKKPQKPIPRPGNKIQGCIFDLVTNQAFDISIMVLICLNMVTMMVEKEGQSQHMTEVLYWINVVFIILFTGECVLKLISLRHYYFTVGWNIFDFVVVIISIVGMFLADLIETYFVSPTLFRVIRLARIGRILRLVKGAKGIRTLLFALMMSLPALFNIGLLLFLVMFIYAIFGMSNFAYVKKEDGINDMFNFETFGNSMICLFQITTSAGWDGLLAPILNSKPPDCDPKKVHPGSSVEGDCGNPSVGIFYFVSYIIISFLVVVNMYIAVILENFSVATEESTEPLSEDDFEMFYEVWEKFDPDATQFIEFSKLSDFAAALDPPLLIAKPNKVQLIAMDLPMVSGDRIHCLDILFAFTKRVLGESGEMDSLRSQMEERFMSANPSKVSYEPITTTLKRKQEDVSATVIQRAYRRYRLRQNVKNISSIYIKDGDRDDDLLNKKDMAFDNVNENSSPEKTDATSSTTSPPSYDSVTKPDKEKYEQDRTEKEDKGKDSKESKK
# Measurement Protocol: Antagonist activity at recombinant human Nav1.7 expressed in HEK293 cells assessed as reduction in channel current at -60 mV holding potential after 600 secs by barracuda automated electrophysiology method
# Type: cell-based
Readout: pIC50
// scale note: pIC50 = -log10(conc_M); give the bare number

// pIC50 lookup, compound = O=S(=O)(Nc1ncns1)c1cc(F)c(OC2OCCNC2c2ccc3ncccc3c2)cc1F (single isomer, unassigned; isomer B) , result: 5.80

// pIC50 lookup, compound = CC(C)[C@@H]1COC(Oc2cc(F)c(S(=O)(=O)Nc3ncns3)cc2F)C(c2cc(Cl)cc(Cl)c2)N1 (single isomer, unassigned; isomer B) , result: 4.60

// pIC50 lookup, compound = O=S(=O)(Nc1ncns1)c1cc(F)c(OC2OCCNC2c2ccc(Cl)c(Cl)c2)cc1F (single isomer, unassigned; isomer A) , result: 5.92

// pIC50 lookup, compound = CN(C)c1noc2ccc(C3NCCOC3Oc3cc(F)c(S(=O)(=O)Nc4ncns4)cc3F)cc12 (single isomer, unassigned; isomer A) , result: 7.15

// pIC50 lookup, compound = O=S(=O)(Nc1ncns1)c1cc(F)c(OC2OCCNC2c2ccc(Cl)nc2)cc1F (single isomer, unassigned; isomer A) , result: 4.77

// pIC50 lookup, compound = COc1cccc(C2NCCOC2Oc2cc(F)c(S(=O)(=O)Nc3ncns3)cc2F)c1 (single isomer, unassigned; isomer A) , result: 6.41

###

# System Under Test: Sodium channel protein type 9 subunit alpha (Homo sapiens)
# Measurement Protocol: Antagonist activity at recombinant human Nav1.7 expressed in HEK293 cells assessed as reduction in channel current at -60 mV holding potential after 600 secs by barracuda automated electrophysiology method
# Format: cell-based
Records here are stratified by IC50; strata: lo: < 600 nM; mid: ≥ 600 nM and < 2000 nM; hi: ≥ 2000 nM

Enquiry: Sort into band: O=S(=O)(Nc1ncns1)c1cc(F)c(OC2OCCNC2c2ccc(F)cc2)cc1F (single isomer, unassigned; isomer A)
Return: mid

Enquiry: Sort into band: "CC1(C)CN[C@H](c2cc(Cl)cc(Cl)c2)[C@@H](Oc2cc(F)c(S(=O)(=O)Nc3ncns3)cc2F)O1"
Return: lo

Enquiry: Sort into band: CC(C)C[C@H]1COC(Oc2cc(F)c(S(=O)(=O)Nc3ncns3)cc2F)C(c2cc(Cl)cc(Cl)c2)N1 (single isomer, unassigned; isomer A)
Return: mid

Enquiry: Sort into band: CC1(C)COC(Oc2cc(F)c(S(=O)(=O)Nc3ncns3)cc2F)C(c2ccc(Cl)cc2)N1 (single isomer, unassigned; isomer B)
Return: lo

Enquiry: Sort into band: "CC1(C)CN[C@@H](c2cc(Cl)cc(Cl)c2)[C@H](Oc2cc(F)c(S(=O)(=O)Nc3ncns3)cc2F)O1"
Return: hi

Enquiry: Sort into band: O=S(=O)(Nc1ncns1)c1cc(F)c(OC2OCCNC2c2ccc(Cl)nc2)cc1F (single isomer, unassigned; isomer B)
Return: hi

Enquiry: Sort into band: CC1(C)CNC(c2cc(Cl)cc(Cl)c2)C(Oc2cc(F)c(S(=O)(=O)Nc3ncns3)cc2F)O1 (single isomer, unassigned; isomer A)
Return: lo

Enquiry: Sort into band: CC(C)C[C@H]1COC(Oc2cc(F)c(S(=O)(=O)Nc3ncns3)cc2F)C(c2cc(Cl)cc(Cl)c2)N1 (stereo in doubt; 61)
Return: hi

Enquiry: Sort into band: Cn1nccc1C1NCCOC1Oc1cc(F)c(S(=O)(=O)Nc2ncns2)cc1F (single isomer, unassigned; isomer A)
Return: hi

Enquiry: Sort into band: CC(C)C[C@@H]1COC(Oc2cc(F)c(S(=O)(=O)Nc3ncns3)cc2F)C(c2cc(Cl)cc(Cl)c2)N1 (single isomer, unassigned; isomer A)
Return: mid

Enquiry: Sort into band: O=S(=O)(Nc1ncns1)c1cc(F)c(OC2OCCNC2c2cccc(C(F)(F)F)c2)cc1F (single isomer, unassigned; isomer B)
Return: lo

Enquiry: Sort into band: "O=S(=O)(Nc1ncns1)c1cc(F)c(OC[C@H]2NCCO[C@@H]2c2ccc(Cl)cc2)cc1F"
Return: mid

Enquiry: Sort into band: O=S(=O)(Nc1ncns1)c1cc(F)c(OC2OCCNC2c2ccc(Cl)cc2Cl)cc1F (single isomer, unassigned; isomer A)
Return: lo

Enquiry: Sort into band: O=S(=O)(Nc1ncns1)c1cc(F)c(OC2OCCNC2c2ccc3c(c2)OCO3)cc1F (single isomer, unassigned; isomer A)
Return: mid

Enquiry: Sort into band: CC(C)C[C@@H]1COC(Oc2cc(F)c(S(=O)(=O)Nc3ncns3)cc2F)C(c2cc(Cl)cc(Cl)c2)N1 (single isomer, unassigned; isomer B)
Return: hi

###

# System Under Test: Sodium channel protein type 5 subunit alpha (Homo sapiens, UniProt Q14524)
# Sequence (Q14524 whole entry): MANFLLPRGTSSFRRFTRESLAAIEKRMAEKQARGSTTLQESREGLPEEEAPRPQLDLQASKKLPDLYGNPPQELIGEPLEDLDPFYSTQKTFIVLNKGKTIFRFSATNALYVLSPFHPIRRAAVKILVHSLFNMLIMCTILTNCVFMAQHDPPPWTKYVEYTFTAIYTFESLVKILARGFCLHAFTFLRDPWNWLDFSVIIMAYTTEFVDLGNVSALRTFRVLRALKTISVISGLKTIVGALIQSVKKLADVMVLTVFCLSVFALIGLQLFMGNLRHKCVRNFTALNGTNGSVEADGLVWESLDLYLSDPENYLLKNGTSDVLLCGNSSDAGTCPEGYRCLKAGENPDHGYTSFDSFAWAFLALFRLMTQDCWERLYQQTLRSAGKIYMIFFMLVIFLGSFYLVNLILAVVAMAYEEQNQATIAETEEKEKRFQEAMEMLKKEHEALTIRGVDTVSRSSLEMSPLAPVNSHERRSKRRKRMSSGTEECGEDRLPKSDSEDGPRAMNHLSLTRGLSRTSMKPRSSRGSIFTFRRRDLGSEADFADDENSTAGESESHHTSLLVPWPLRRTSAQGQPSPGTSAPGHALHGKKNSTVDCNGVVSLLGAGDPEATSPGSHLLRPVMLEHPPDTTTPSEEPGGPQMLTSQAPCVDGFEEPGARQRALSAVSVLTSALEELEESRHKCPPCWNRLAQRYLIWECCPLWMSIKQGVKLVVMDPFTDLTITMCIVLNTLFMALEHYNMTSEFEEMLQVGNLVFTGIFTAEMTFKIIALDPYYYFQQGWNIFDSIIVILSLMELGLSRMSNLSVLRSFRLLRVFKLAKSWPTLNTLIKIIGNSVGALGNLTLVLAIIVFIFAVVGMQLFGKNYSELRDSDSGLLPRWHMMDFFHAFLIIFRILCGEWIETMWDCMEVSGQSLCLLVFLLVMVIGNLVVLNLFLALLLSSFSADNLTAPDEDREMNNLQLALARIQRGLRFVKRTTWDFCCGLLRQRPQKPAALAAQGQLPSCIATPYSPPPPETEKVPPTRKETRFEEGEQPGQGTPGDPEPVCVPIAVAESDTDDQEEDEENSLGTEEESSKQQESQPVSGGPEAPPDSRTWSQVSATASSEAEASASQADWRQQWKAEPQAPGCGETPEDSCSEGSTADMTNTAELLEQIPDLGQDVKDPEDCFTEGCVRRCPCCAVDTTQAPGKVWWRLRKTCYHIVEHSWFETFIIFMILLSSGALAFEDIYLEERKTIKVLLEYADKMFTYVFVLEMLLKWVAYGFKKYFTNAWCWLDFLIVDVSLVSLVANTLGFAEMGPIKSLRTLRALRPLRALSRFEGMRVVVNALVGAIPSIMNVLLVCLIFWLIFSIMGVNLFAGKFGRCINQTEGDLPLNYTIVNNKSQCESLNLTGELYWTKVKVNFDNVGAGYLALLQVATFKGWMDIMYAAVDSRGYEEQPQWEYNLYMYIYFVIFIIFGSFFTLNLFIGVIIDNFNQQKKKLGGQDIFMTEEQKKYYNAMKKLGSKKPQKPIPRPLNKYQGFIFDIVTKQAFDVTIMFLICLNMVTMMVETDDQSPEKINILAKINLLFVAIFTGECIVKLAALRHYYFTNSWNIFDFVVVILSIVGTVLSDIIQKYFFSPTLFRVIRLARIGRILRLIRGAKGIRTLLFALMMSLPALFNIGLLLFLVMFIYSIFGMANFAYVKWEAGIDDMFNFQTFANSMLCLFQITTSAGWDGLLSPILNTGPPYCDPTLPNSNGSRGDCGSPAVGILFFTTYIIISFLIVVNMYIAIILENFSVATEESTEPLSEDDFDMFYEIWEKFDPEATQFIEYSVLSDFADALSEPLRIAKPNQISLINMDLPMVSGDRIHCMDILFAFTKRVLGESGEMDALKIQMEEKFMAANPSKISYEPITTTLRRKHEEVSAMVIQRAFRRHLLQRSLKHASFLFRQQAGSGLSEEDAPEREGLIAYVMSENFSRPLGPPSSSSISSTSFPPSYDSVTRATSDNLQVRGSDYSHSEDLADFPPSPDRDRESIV
# Measurement Protocol: Antagonist activity at recombinant human Nav1.5 expressed in HEK293 cells assessed as reduction in channel current at -50 mV holding potential after 600 secs by barracuda automated electrophysiology method
# Type: ADME, cell-based
pIC50: −log10 of the molar value.
Kindly state pIC50 for each of the entries shown.

// pIC50 lookup, molecule = "CC1(C)CN[C@@H](c2cc(Cl)cc(Cl)c2)[C@H](Oc2cc(F)c(S(=O)(=O)Nc3ncns3)cc2F)O1" , result: 5.36

// pIC50 lookup, molecule = Cn1nccc1C1NCCOC1Oc1cc(F)c(S(=O)(=O)Nc2ncns2)cc1F (stereo in doubt; 55) , result: < 4.52

// pIC50 lookup, molecule = O=S(=O)(Nc1ncns1)c1cc(F)c(OC2OCCNC2c2ccc3ncccc3c2)cc1F (single isomer, unassigned; isomer B) , result: < 4.52

// pIC50 lookup, molecule = Cn1nc(C(F)(F)F)cc1C1NCCOC1Oc1cc(F)c(S(=O)(=O)Nc2ncns2)cc1F (single isomer, unassigned; isomer B) , result: < 4.52

// pIC50 lookup, molecule = O=S(=O)(Nc1ncns1)c1cc(F)c(OC2OCCNC2c2ccc(F)cc2)cc1F (single isomer, unassigned; isomer A) , result: < 4.52

// pIC50 lookup, molecule = O=S(=O)(Nc1ncns1)c1cc(F)c(OC2OCCNC2c2cccc3nccnc23)cc1F (single isomer, unassigned; isomer B) , result: < 4.52

// pIC50 lookup, molecule = O=S(=O)(Nc1ncns1)c1cc(F)c(OC2OCCNC2c2ccc(Cl)c(Cl)c2)cc1F (single isomer, unassigned; isomer B) , result: 5.52
